- Test system: Escherichia coli TOP10
- TEST_SUMMARY: shrunken log2 fold change of peptide-encoding DNA abundance (4.5 h post-induction vs induction); higher = less antimicrobial activity (less host growth inhibition)
- TEST_CONTEXT: time post-induction: 4.5 h; library: site-saturation at positions 5, 18, 19, 20
Recorded shrunken log2 fold change, one value per entry.
Please reply with the value in numeric form only.

Guide cases for shrunken log2 fold change, answers given:
>  <RESIDUE_STRING>
RRIRERPPRLPRPRPRPHWLPRP

>  <ASSAYED_TARGET>
Escherichia coli TOP10

>  <QUANTITY>
shrunken log2 fold change

>  <MEASURED>
-0.128

$$$$
>  <RESIDUE_STRING>
RRIRHRPPRLPRPRPRPQTNPRP

>  <ASSAYED_TARGET>
Escherichia coli TOP10

>  <QUANTITY>
shrunken log2 fold change

>  <MEASURED>
-0.633

$$$$
>  <RESIDUE_STRING>
RRIRQRPPRLPRPRPRPACFPRP

>  <ASSAYED_TARGET>
Escherichia coli TOP10

>  <QUANTITY>
shrunken log2 fold change

>  <MEASURED>
0.315

$$$$
>  <RESIDUE_STRING>
RRIRRRPPRLPRPRPRPPQAPRP

>  <ASSAYED_TARGET>
Escherichia coli TOP10

>  <QUANTITY>
shrunken log2 fold change

>  <MEASURED>
1.19

$$$$
>  <RESIDUE_STRING>
RRIRKRPPRLPRPRPRPICLPRP

>  <ASSAYED_TARGET>
Escherichia coli TOP10

>  <QUANTITY>
shrunken log2 fold change

>  <MEASURED>
0.141

$$$$

Enquiry: State shrunken log2 fold change (Escherichia coli TOP10) of "RRIRPRPPRLPRPRPRPYAHPRP" .
Return: -0.0338

Enquiry: Enter measured shrunken log2 fold change, system Escherichia coli TOP10, for the sequence shown: "RRIRFRPPRLPRPRPRPPIEPRP"
Return: -0.201

Enquiry: Name the value of shrunken log2 fold change reported for "RRIRGRPPRLPRPRPRPHFLPRP" when tested on Escherichia coli TOP10.
Return: 1.03

Enquiry: Name the value of shrunken log2 fold change reported for "RRIRQRPPRLPRPRPRPSHCPRP" when tested on Escherichia coli TOP10.
Return: 0.0811

Enquiry: Output reported shrunken log2 fold change of the sequence "RRIRWRPPRLPRPRPRPIIEPRP" on Escherichia coli TOP10.
Return: -0.273

---

The sequences listed here are annotated with their shrunken log2 fold change.
- Tested on: Escherichia coli TOP10
- TEST_SUMMARY: shrunken log2 fold change of peptide-encoding DNA abundance (4.5 h post-induction vs induction); higher = less antimicrobial activity (less host growth inhibition)
- TEST_CONTEXT: time post-induction: 4.5 h; library: site-saturation at positions 5, 18, 19, 20
Form: value (number only, do not type unit).

Answered cases to consult:
>  <RESIDUE_STRING>
RRIRIRPPRLPRPRPRPMKEPRP

>  <MEASURED>
0.116

$$$$
>  <RESIDUE_STRING>
RRIRHRPPRLPRPRPRPQDLPRP

>  <MEASURED>
-0.0414

$$$$
>  <RESIDUE_STRING>
RRIRSRPPRLPRPRPRPFLMPRP

>  <MEASURED>
3.07

$$$$

Next item in the queue.
Enquiry: Supply measured shrunken log2 fold change of "RRIRARPPRLPRPRPRPTALPRP" in your reply.
Return: 0.513

---

shrunken log2 fold change by entry:
- Test system: Escherichia coli TOP10
- TEST_SUMMARY: shrunken log2 fold change of peptide-encoding DNA abundance (4.5 h post-induction vs induction); higher = less antimicrobial activity (less host growth inhibition)
- TEST_CONTEXT: time post-induction: 4.5 h; library: site-saturation at positions 5, 18, 19, 20
// response body must contain only the number

Example entries and their recorded answers appear below.
>  <RESIDUE_STRING>
RRIRARPPRLPRPRPRPESVPRP

>  <ASSAYED_TARGET>
Escherichia coli TOP10

>  <QUANTITY>
shrunken log2 fold change

>  <MEASURED>
0.886

$$$$
>  <RESIDUE_STRING>
RRIRTRPPRLPRPRPRPSVVPRP

>  <ASSAYED_TARGET>
Escherichia coli TOP10

>  <QUANTITY>
shrunken log2 fold change

>  <MEASURED>
-0.384

$$$$
>  <RESIDUE_STRING>
RRIRLRPPRLPRPRPRPSTVPRP

>  <ASSAYED_TARGET>
Escherichia coli TOP10

>  <QUANTITY>
shrunken log2 fold change

>  <MEASURED>
-0.938

$$$$
>  <RESIDUE_STRING>
RRIRNRPPRLPRPRPRPNHCPRP

>  <ASSAYED_TARGET>
Escherichia coli TOP10

>  <QUANTITY>
shrunken log2 fold change

>  <MEASURED>
-0.216

$$$$
>  <RESIDUE_STRING>
RRIRSRPPRLPRPRPRPTHKPRP

>  <ASSAYED_TARGET>
Escherichia coli TOP10

>  <QUANTITY>
shrunken log2 fold change

>  <MEASURED>
0.202

$$$$
>  <RESIDUE_STRING>
RRIRYRPPRLPRPRPRPNFHPRP

>  <ASSAYED_TARGET>
Escherichia coli TOP10

>  <QUANTITY>
shrunken log2 fold change

>  <MEASURED>
-0.612

$$$$
>  <RESIDUE_STRING>
RRIRDRPPRLPRPRPRPLHGPRP

>  <ASSAYED_TARGET>
Escherichia coli TOP10

>  <QUANTITY>
shrunken log2 fold change

>  <MEASURED>
0.01

$$$$
>  <RESIDUE_STRING>
RRIRLRPPRLPRPRPRPYTHPRP

>  <ASSAYED_TARGET>
Escherichia coli TOP10

>  <QUANTITY>
shrunken log2 fold change

>  <MEASURED>
-0.925

$$$$
>  <RESIDUE_STRING>
RRIRDRPPRLPRPRPRPSENPRP

>  <ASSAYED_TARGET>
Escherichia coli TOP10

>  <QUANTITY>
shrunken log2 fold change

>  <MEASURED>
-0.0386

$$$$
>  <RESIDUE_STRING>
RRIRHRPPRLPRPRPRPVAGPRP

>  <ASSAYED_TARGET>
Escherichia coli TOP10

>  <QUANTITY>
shrunken log2 fold change

>  <MEASURED>
0.26

$$$$

Enquiry: Give the reported value of shrunken log2 fold change for this record: "RRIRPRPPRLPRPRPRPYGVPRP"
Return: -0.157

Enquiry: Give shrunken log2 fold change for the following sequence: "RRIRSRPPRLPRPRPRPLLVPRP"
Return: 0.0795

Enquiry: Entry "RRIRSRPPRLPRPRPRPVEMPRP" needs its shrunken log2 fold change filled in; supply it.
Return: 0.0369

Enquiry: Report shrunken log2 fold change, nothing else, for this sequence: "RRIRLRPPRLPRPRPRPMPPPRP"
Return: 0.15

Enquiry: Give the reported shrunken log2 fold change for this sequence. "RRIRQRPPRLPRPRPRPRDGPRP"
Return: 0.666

Enquiry: # return recorded shrunken log2 fold change for input "RRIRIRPPRLPRPRPRPTGMPRP"
Return: -0.161

---

- Tested on: Escherichia coli TOP10
- TEST_SUMMARY: shrunken log2 fold change of peptide-encoding DNA abundance (4.5 h post-induction vs induction); higher = less antimicrobial activity (less host growth inhibition)
- TEST_CONTEXT: time post-induction: 4.5 h; library: site-saturation at positions 5, 18, 19, 20
# binarize shrunken log2 fold change: threshold -0.06 inclusive, high side Fulfilled, low side Not fulfilled

>  <RESIDUE_STRING>
RRIRQRPPRLPRPRPRPVSDPRP

>  <ASSAYED_TARGET>
Escherichia coli TOP10

>  <LABEL>
Fulfilled

$$$$
>  <RESIDUE_STRING>
RRIRPRPPRLPRPRPRPFDLPRP

>  <ASSAYED_TARGET>
Escherichia coli TOP10

>  <LABEL>
Not fulfilled

$$$$
>  <RESIDUE_STRING>
RRIRGRPPRLPRPRPRPLSHPRP

>  <ASSAYED_TARGET>
Escherichia coli TOP10

>  <LABEL>
Fulfilled

$$$$
>  <RESIDUE_STRING>
RRIRYRPPRLPRPRPRPYWHPRP

>  <ASSAYED_TARGET>
Escherichia coli TOP10

>  <LABEL>
Not fulfilled

$$$$
>  <RESIDUE_STRING>
RRIRQRPPRLPRPRPRPHWNPRP

>  <ASSAYED_TARGET>
Escherichia coli TOP10

>  <LABEL>
Not fulfilled

$$$$
>  <RESIDUE_STRING>
RRIRFRPPRLPRPRPRPQQQPRP

>  <ASSAYED_TARGET>
Escherichia coli TOP10

>  <LABEL>
Fulfilled

$$$$
>  <RESIDUE_STRING>
RRIRQRPPRLPRPRPRPVQIPRP

>  <ASSAYED_TARGET>
Escherichia coli TOP10

>  <LABEL>
Fulfilled

$$$$
>  <RESIDUE_STRING>
RRIRIRPPRLPRPRPRPETQPRP

>  <ASSAYED_TARGET>
Escherichia coli TOP10

>  <LABEL>
Fulfilled

$$$$
>  <RESIDUE_STRING>
RRIRARPPRLPRPRPRPAAPPRP

>  <ASSAYED_TARGET>
Escherichia coli TOP10

>  <LABEL>
Fulfilled

$$$$
>  <RESIDUE_STRING>
RRIRPRPPRLPRPRPRPNKIPRP

>  <ASSAYED_TARGET>
Escherichia coli TOP10;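 note: peptides expressed intracellularly from a pBAD plasmid library in pooled LB shake-flask culture, induced with 0.3% L-arabinose, DNA abundance read by NGS, three biological replicates, DESeq2 with apeglm shrinkage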

>  <LABEL>
Not fulfilled

$$$$

Enquiry: Kindly determine if shrunken log2 fold change recorded for "RRIRARPPRLPRPRPRPTIIPRP" is above or exactly -0.06.
Return: Not fulfilled

Enquiry: Threshold query (shrunken log2 fold change >= -0.06) on "RRIRFRPPRLPRPRPRPNAQPRP"
Return: Fulfilled

Enquiry: For this sequence, is measured shrunken log2 fold change -0.06 or higher? "RRIRMRPPRLPRPRPRPAESPRP"
Return: Fulfilled

Enquiry: Is shrunken log2 fold change for "RRIRGRPPRLPRPRPRPKMAPRP" at or above -0.06?
Return: Fulfilled

Enquiry: For this sequence, is measured shrunken log2 fold change -0.06 or higher? "RRIRVRPPRLPRPRPRPCMMPRP"
Return: Not fulfilled

FYI, the data here is from the supplement of paper PMC9112550.
